# Test system: SK-MEL-5 melanoma
# Test description: NCI-60 one-dose screen, 48 h
# Applied conditions: 10 µM unless noted
This is part of a sample that, as a whole, favours compounds with a hit. Of some 83,000 tested, about 20% had one in any assay. Calls of active or inactive are those of the source. Rule for the calls: active = growth percent below 10; inactive = the rest.
Labels: active, inactive

{"columns": ["Compound", "Cat"],
 "data": [
  ["COc1cc(C2N=C(NNc3ccccc3)NC(C)=C2C(C)=O)ccc1O (stereo not drawn)", "inactive"],
  ["COc1ccc(NC(=O)Nc2ccc3c(ccn3C(=O)c3cccc(F)c3)c2)cc1", "inactive"],
  ["COc1ccc(Oc2ccc(/C=N/NC(=O)CSc3nc4ccccc4c(=O)n3-c3ccc(Cl)cc3)cc2)cc1", "inactive"],
  ["CS(=O)(=O)Nc1cc(-c2ccc3ncc(C#N)c(NCc4ccccc4O)c3c2)cnc1Cl", "active"],
  ["Cc1cccc2c3c(sc12)C(c1ccc(Cl)cc1)c1c(nc(CC(=O)Nc2ccccc2)[nH]c1=O)O3 (stereo not drawn)", "inactive"],
  ["COc1ccc([C@H]2c3[nH]c4ccccc4c3C[C@H]3C(=O)N(C4CCN(Cc5c(Cl)cccc5Cl)CC4)CC(=O)N23)c(OC)c1", "inactive"],
  ["CN1CCN(c2nc(-c3csc(-c4ccccc4)n3)cc3ccccc23)CC1", "inactive"],
  ["CCN(CC)c1ccc2c(c1)Oc1nc(N)c(C#N)c(N)c1C2Sc1ccc(C)cc1 (stereo not drawn)", "active"],
  ["C=C(C)[C@@H]1CC[C@]2(COP(=O)(OCC)OCC)CC[C@]3(C)[C@H](CC[C@@H]4[C@@]5(C)CCCNC(C)(C)[C@@H]5CC[C@]43C)[C@@H]12", "inactive"],
  ["COc1ccc(/C=C/C(=O)c2cccc(NC(=O)CSc3nc4ccccc4c(=O)n3-c3ccccc3)c2)cc1OC", "inactive"],
  ["CC1=NC2=NN3C(=NN2C(c2ccccc2)=C1)N=NC(c1ccc(Br)cc1)=C3c1ccc(Br)cc1", "inactive"],
  ["C[C@@H](Nc1c(C#N)cnc2ccc(-c3cnc(Cl)c(NS(C)(=O)=O)c3)cc12)c1ccccc1", "active"],
  ["CCn1c(SCC(=O)Nc2cccc(C(=O)/C=C/c3ccc(C)cc3)c2)nc2ccccc2c1=O", "inactive"],
  ["C#CCOC(=O)[C@@H]1CCCN1CC#C", "inactive"],
  ["CC(C)C[C@@H]1N[C@@]2(C(=O)Nc3ccccc32)[C@@H](c2ccc(F)cc2)[C@@H]1C(=O)c1ccc(O)cc1", "inactive"],
  ["COc1ccc(/C=C(\\C#N)C(=O)N2c3ccccc3Sc3ccc(SC)cc32)cc1F", "inactive"],
  ["CS(=O)(=O)Nc1cc(-c2ccc3ncc(C#N)c(NCc4cccc(F)c4)c3c2)cnc1Cl", "active"],
  ["COc1ccccc1-n1cc(C#N)c(N)c1C(=O)c1ccc(C)cc1", "inactive"],
  ["CC(=O)Nc1cccc(Nc2nc(N[C@H](C)c3ccccc3)c3ccccc3n2)c1", "inactive"],
  ["CCO/C=N/C1=C(C#N)C(c2ccc(Cl)cc2)c2sc3c(CC)cccc3c2O1 (stereo not drawn)", "inactive"],
  ["COc1cccc2c1CN(C(=O)c1ccc(O)c(C(=O)N3Cc4ccc(OCCC[P+](c5ccccc5)(c5ccccc5)c5ccccc5)cc4C3)c1)C2", "inactive"],
  ["COc1ccc2c(c1)c(CC(=O)[Se]CC(=O)O)c(C)n2C(=O)c1ccc(Cl)cc1", "inactive"],
  ["C=C(C)[C@@H]1CC[C@]2(C(=O)NCCCCCN(CCC#N)CCC#N)CC[C@]3(C)[C@H](CC[C@@H]4[C@@]5(C)CCC(=O)C(C)(C)[C@@H]5CC[C@]43C)[C@@H]12", "inactive"]
]}

// data source = PubChem BioAssay (NCI)
